// data source = ChEMBL document CHEMBL3882724

- target-or-system: Steroid 17-alpha-hydroxylase/17,20 lyase (Homo sapiens)
- experimental-details: Inhibition of CYP17 in human testicular microsomes using 17alpha-hydroxypregnenolone as substrate assessed as decrease in DHEA levels at 1 nM after 90 mins by ELISA relative to control
- Parameters: species or system Testis
pIC50: −log10 of the molar value.
measurement-kind: pIC50

Input: Please report the measured pIC50 for CC1C[C@H]2C3=CC=C(c4cncc(F)c4)[C@@]3(C)CC[C@@H]2[C@@]2(C)CCC(=O)C=C12 (some centres not stated)
Output: ≥ 8.00

Input: Identify measured pIC50 associated with COC(=O)N1CCC[C@@]2(C)[C@@H](CC[C@@H]3[C@@H]2CC[C@]2(C)C(n4ccnc4)=CC[C@@H]32)C1
Output: < 7.00

Input: Output pIC50 of CO/N=C1/C=C2CC[C@H]3C4=CC=C(c5cccnc5)[C@@]4(C)CC[C@@H]3[C@@]2(C)CC1
Output: < 7.00

Input: Complete the entry with pIC50 for C[C@]12CCC(=O)C=C1C1CC1[C@@H]1[C@@H]2CC[C@]2(C)C(c3cccnc3)=CC[C@@H]12 (some centres not stated)
Output: < 7.00

Input: Return reported pIC50. Input compound: C[C@]12CC[C@H]3[C@@H](CC(C4CC4)C4=CC(=O)CC[C@@]43C)C1=CC=C2c1cccnc1 (some centres not stated)
Output: < 7.00

Input: State its pIC50: CN1CC[C@@]2(C)C(=CC1=O)C1CC1[C@H]1C3=CC=C(c4cccnc4)[C@@]3(C)CC[C@@H]12 (some centres not stated)
Output: 7.00 to 8.00

Input: Identify pIC50 associated with the compound C[C@]12C=C/C(=N\O)C=C1C1(CC1)C[C@@H]1[C@@H]2CC[C@]2(C)C(c3cccnc3)=CC[C@@H]12
Output: < 7.00

----------
So I've got a bunch of compounds here, and I need their pIC50 values.
- target-or-system: Steroid 17-alpha-hydroxylase/17,20 lyase (Homo sapiens, UniProt P05093)
- Sequence (P05093 whole entry): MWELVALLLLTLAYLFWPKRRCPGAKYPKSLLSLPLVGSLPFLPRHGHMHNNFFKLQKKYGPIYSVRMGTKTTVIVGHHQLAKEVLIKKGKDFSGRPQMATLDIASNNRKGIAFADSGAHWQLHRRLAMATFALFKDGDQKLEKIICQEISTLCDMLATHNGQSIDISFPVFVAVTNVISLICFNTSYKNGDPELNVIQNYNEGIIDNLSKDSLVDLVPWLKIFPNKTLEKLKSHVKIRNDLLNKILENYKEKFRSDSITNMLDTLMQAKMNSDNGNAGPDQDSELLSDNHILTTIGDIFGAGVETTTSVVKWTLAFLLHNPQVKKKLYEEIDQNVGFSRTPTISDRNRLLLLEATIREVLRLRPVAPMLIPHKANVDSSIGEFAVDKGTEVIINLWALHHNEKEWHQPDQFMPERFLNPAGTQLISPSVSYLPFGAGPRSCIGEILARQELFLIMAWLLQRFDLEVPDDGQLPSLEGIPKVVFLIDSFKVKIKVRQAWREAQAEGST
- experimental-details: Inhibition of CYP17 in human testicular microsomes using 17alpha-hydroxypregnenolone as substrate assessed as decrease in DHEA levels at 1 nM after 90 mins by ELISA relative to control
- Design: species or system Testis
pIC50: −log10 of the molar value.

Input: Please respond with reported pIC50 (system Steroid 17-alpha-hydroxylase/17,20 lyase (Homo sapiens, UniProt P05093)) for CCC1C[C@H]2C3=CC=C(c4cccnc4)[C@@]3(C)CC[C@@H]2[C@@]2(C)CCC(=O)C=C12 (some centres undefined) .
Output: 7.00 to 8.00

Input: Please indicate recorded pIC50 of C[C@]12CCNC(=O)C=C1C1CC1[C@@H]1[C@@H]2CC[C@]2(C)C(c3cccnc3)=CC[C@@H]12 (some centres undefined) measured with Steroid 17-alpha-hydroxylase/17,20 lyase (Homo sapiens, UniProt P05093).
Output: < 7.00

Input: State pIC50 on Steroid 17-alpha-hydroxylase/17,20 lyase (Homo sapiens, UniProt P05093). Entry: CN1CC[C@@]2(C)C(=CC1=O)CC[C@H]1C3=CC=C(c4cncc(F)c4)[C@@]3(C)CC[C@@H]12
Output: < 7.00

Input: Quote Steroid 17-alpha-hydroxylase/17,20 lyase (Homo sapiens, UniProt P05093) pIC50 for entry C[C@]12CC[C@H]3[C@@H](CC4(CC4)C4=CC(=O)CC[C@@]43C)C1=CC=C2c1cccnc1 .
Output: ≥ 8.00
